system: DU-145 prostate; assay: NCI tumour cell line growth inhibition, 48 h; in the data active = GI50 below about 0.43 µM; inactive = the rest
Labels: active, inactive

INPUT_SMILES | GROUP
CCOC(=O)c1cc(-c2ccc(OC)c(OC)c2)[nH]c1N/N=C/c1c(Cl)cccc1Cl | inactive
COc1cc(/C=C\c2cc(/C=C\c3ccc(O)c(OC)c3)n(C(=O)CNc3ccc(Cl)cc3)n2)ccc1O | inactive
O=S(=O)(Nc1ccc2ccccc2c1)c1ccc(-c2cnc(C3CC3)o2)cc1 | inactive
O=C(Nc1cccnc1)c1ccc2ccc3ccc(C(=O)Nc4cccnc4)nc3c2n1 | active
NC(=Nc1nc(-c2ccccn2)cc2ccccc12)c1ccccn1 | active

----------
tested on: RXF 393 renal; assay: NCI tumour cell line growth inhibition, 48 h

MOLECULE | GI50
COc1ccc(CNc2cnc3cc(N)cc(N)c3n2)cc1 | 22.3 µM
C=C1CCC2C3(C)COC(c4ccc(Cl)cc4)OC3CCC2(C)C1/C=C/C1=CCOC1=O (stereo not given) | 12 µM
O=C(Cn1c(C(=O)c2ccccc2)nc2ccccc21)c1ccc(F)cc1 | 7.29 µM
COc1cc(/C=C\c2cc(/C=C\c3ccc(O)c(OC)c3)n(C(=O)CNc3ccc(Cl)cc3)n2)ccc1O | 2.1 µM
CCCCCCN(C)Cc1ccc(OCCOc2ccc(CN(C)CCCCCC)cc2)cc1 | 0.834 µM
CCOc1c(C#N)c2c(N)ncnc2n1C1OC(CO)C(O)C1O (stereo not given) | 2.27 µM
N#Cc1c(N)nc(N2CCSCC2)c(C#N)c1-c1ccc(O)cc1 | 35.3 µM
C[C@@H]1CC[C@@H]2[C@@H](C)C[C@H]3[C@@H]4C(C)(C)OC(=O)[C@]4(C)C(=O)[C@@]23C1=O | > 100 µM
Cc1nnc(-c2ccc(C)c(-c3ccc(C(=O)NCc4ccc(Cl)cc4)cc3)c2)o1 | 6.28 µM
CSc1ccc(C2=NN(C(C)=O)C(c3ccc(F)cc3)C2)cc1 (stereo not given) | 18.5 µM

----------
tested on: HCT-116 colon; experiment: NCI tumour cell line growth inhibition, 48 h
Outcome: 1 for TGI of at least 30 µM; 0 for anything lower.

COMPOUND | GROUP
COc1ccc(CNC(=O)[C@H](Cc2ccc(O)cn2)NC(C)=O)cc1 | 1
C=C1C(=O)OC2CC3(C)CCCC(C)C3=CC12 (stereo unspecified) | 0
COc1cc2c(cc1OC)c1c(OC)c(OC)cc3c1c1c2sc(=S)n1CC3 | 1
CC1=CC(C)(C)Nc2ccc(CSc3ccccc3)cc21 | 1
COc1ccc(Nc2nc3ccccc3nc2C(=O)O)cc1OC | 1
COc1cccc2cc(C(=O)Nc3ccccn3)c(=N)oc12 | 1
COCOCC[C@@H]1CC=CC(NC(=O)OCc2ccccc2)C1/C=C/C(=O)CCC1OCCO1 (stereo partly specified) | 1
Cc1ccc(C)n1-n1c(-c2ccccc2)n[nH]c1=O | 1
CC1CC(C)C2=NOS3=C2C1=NO3 (stereo unspecified) | 1
Cc1cc(C)nc(NS(=O)(=O)c2ccc(NC(=O)c3ccc(Cl)c4c(Nc5ccc(S(=O)(=O)N=C(N)N)cc5)c5ccccc5nc34)cc2)n1 | 1
CN(C)CCNC(=O)c1cccc2ncc(-c3ccccc3)nc12 | 0
COc1ccc(-c2nc(-c3cnccn3)n(COCCO)n2)cc1 | 1
CN(C)c1ccc(C(=NN)c2ccc(N(C)C)cc2)cc1 | 1
CC1OC(O[C@H]2CC[C@]3(C=O)[C@H]4CC[C@]5(C)[C@H](C6=CC(=O)OC6)CC[C@]5(O)[C@@H]4C=C[C@]3(O)C2)CC(O)C1O (stereo partly specified) | 0
NNC(=S)Nc1cccc(Cl)c1 | 1
C[C@@H]1CC[C@@H]2[C@@H](C)C[C@H]3[C@@H]4C(C)(C)OC(=O)[C@]4(C)C(=O)[C@@]23C1=O | 1
Cn1nc(-c2ccccc2)c(C(=O)/C=C/c2ccc(F)cc2)c(N2CCOCC2)c1=O | 0
CC(=O)[O-].[O-]c1c(Cl)cc(Cl)cc1/C=N/Nc1ccccn1.[Zn+2] | 1
COc1cc2c(c(OC(C)=O)c1OC(C)=O)-c1ccc(SC)c(=O)cc1C(NC(C)=O)CC2 (stereo unspecified) | 0

----------
tested on: HT29 colon; assay: NCI tumour cell line growth inhibition, 48 h; in the data active = GI50 below about 0.43 µM; inactive = the rest
Labels: active, inactive

COMPOUND | GROUP
O=C(NNC(=S)Nc1ccccc1)c1ccccn1 | inactive
O=C(Nc1ccc2c(c1)OCO2)C(=O)c1c[nH]c2cc(F)ccc12 | inactive
Cc1cn2c(/C=C3/C(=O)Nc4ccc(F)cc43)c(C)nc2s1 | inactive
O=C(Nc1cccnc1)c1ccc2ccc3ccc(C(=O)Nc4cccnc4)nc3c2n1 | active
O=C(Cn1c(C(=O)c2ccccc2)nc2ccccc21)c1ccc(F)cc1 | inactive
N#Cc1c(N)nc(N2CCSCC2)c(C#N)c1-c1ccc(O)cc1 | inactive
C/C=C(/C)C(=O)OC1C=C(CO)C(=O)C(OC(=O)C(C)(O)C(C)Cl)C1C(C)C (centres undefined) | inactive
CCC[CH2][Sn]([CH2]CCC)([O]C(=O)c1cc(F)cc(F)c1)[O][Sn]([CH2]CCC)([CH2]CCC)[O]C(=O)c1cc(F)cc(F)c1 | inactive
CN1CCN(Cc2ccc(NC(=O)c3cncc(C#Cc4cnn5ccccc45)c3)cc2C(F)(F)F)CC1 | inactive

----------
tested on: HT29 colon; test: NCI tumour cell line growth inhibition, 48 h

COMPOUND | TGI
N#Cc1cc(NC(=O)c2ccccc2)c(=O)n2c1[nH]c1ccccc12 | > 100 µM
COC(=O)C(=O)C(C(=O)C(=O)Nc1ccc(C)cc1)c1nc2ccc(C(=O)c3ccccc3)cc2[nH]c1=O (centres undefined) | > 100 µM
O=C(O)c1nccnc1C(=O)O | > 100 µM
Nc1c(N2CCCCC2)c(=O)nc2[nH]/c(=C\c3ccccc3)c(=O)n12 | > 100 µM
C[N+](C)([O-])Cc1cc(-c2ccccc2)ccc1O | > 100 µM
CC1(C)CN=C(Nc2ccc(F)c(F)c2)S1 | > 100 µM
CC1CCc2c(c(CC3CC(=O)NC(=O)C3)nn2-c2ccccc2)C1 (centres undefined) | > 100 µM
O=C(c1ccccc1)c1c(CC(O)c2ccccc2)n(C(=O)c2ccccc2)c2ccccc12 (centres undefined) | > 100 µM
N#Cc1c(-c2ccccc2)c(C#N)c(=O)n(C2OC(CO)C(O)C(O)C2O)c1S (centres undefined) | > 100 µM
O=C(Nc1nc(-c2ccc(Cl)cc2)nc2c1sc(=S)n2-c1ccccc1)C(F)(F)F | > 100 µM
CC1=NN(C(=O)c2ccc(Cl)cc2)C(=O)/C1=C/c1ccco1 | > 100 µM
CCN(CC)COC(=S)S | > 100 µM
CSc1nc(NC2OC(COC(C)=O)C(OC(C)=O)C(OC(C)=O)C2OC(C)=O)c(N=C(C)C(C)=O)c(=O)n1C (centres undefined) | > 100 µM
Cc1ccc(C)n1-n1c(-c2ccccc2)n[nH]c1=O | > 100 µM
O=C(NNC(=S)NCc1ccccc1)C12CC3CC(CC(C3)C1)C2 | > 100 µM
COc1ccc2c(CCNS(=O)(=O)c3ccccc3)c(C(C)=O)[nH]c2c1 | > 100 µM
O=C(Nn1cnn2c(=O)c3ccccc3nc2c1=O)c1ccccc1 | > 100 µM
O=C1CN(c2ccc(Cl)cc2)C(=O)CN1NCNN1CC(=O)N(c2ccc(Cl)cc2)CC1=O | > 100 µM
CC[C@@H](C)Nc1cc(C(=O)NC2CC3CCC(C2)N3c2ccc(C(=O)C3CC3)cn2)c(C)cc1C(N)=O (some centres undefined) | 15.9 µM
Cc1cc(NNC(=O)c2ccccc2O)nc(Nc2nc3ccccc3o2)n1 | 15.4 µM
CCCOC1OC(CS(=O)(=O)O)C(O)C(O)C1O (centres undefined) | > 100 µM
CC(C)CN(CC#N)CC(C)C | > 100 µM
C=C1CC(CN2CCC(=O)NC2=O)(c2ccccc2)OC1=O (centres undefined) | 25.3 µM
NNC(=O)N/N=C1\C(=O)N(c2nccs2)C(=O)C(=O)C1c1nc2ccccc2s1 (centres undefined) | > 100 µM
CCOC(=O)N1[C@@H]2CCC[C@@H]2C(=O)[C@@H]2CCC[C@@H]21 | > 100 µM
C=C1C(=O)OC2C1C(OC(=O)/C(C)=C\C)CC1(CO1)C1C(O)C=C(C)C21O (centres undefined) | 31.4 µM
CN1CCN(Cc2ccc(NC(=O)c3cncc(C#Cc4cnn5ccccc45)c3)cc2C(F)(F)F)CC1 | 4.89 µM
C=CCc1cccc(/C=N\N=C(/N)NO)c1O | > 58.5 µM
CCCCN=C1OCc2[nH][nH]c(=O)c21 | > 100 µM
CCCCCCCCCc1c(O)c(O)c(CCCCCCCCC)c(CCCCCCCCC)c1CCCCCCCCC | > 100 µM
CC(=O)ON(C(C)=O)C1C(COC(c2ccccc2)(c2ccccc2)c2ccccc2)OC2OC3(CCCC3)OC21 (centres undefined) | > 100 µM
C[C@]12CC[C@@H]3c4ccc(OCCN5CCCC5)cc4CC[C@H]3[C@@H]1CCC2=O | > 100 µM
CN(C)C(=O)C1CCN(Cc2c[nH]c3ccccc23)CC1 | > 100 µM
c1ccc(C2=Nc3cccc4cccc(c34)N2)cc1 | > 100 µM
CN(C)CCC1(C2=CCCC2)CC/C(=C\c2ccccc2Cl)C1=O (centres undefined) | 20.7 µM
O=C(O)Cn1c2c(c3c(O)cccc31)C(=O)c1ccccc1-2 | > 100 µM
COC(=O)C1C(C(=O)OC)C1(Br)CBr (centres undefined) | 63.3 µM
CCN(CC)C(=S)SS(=O)(=O)c1ccccc1[N+](=O)[O-] | 50.4 µM
C#CCN(N=O)C(=O)NCCCC(NC(C)=O)C(=O)NCc1ccccc1 (centres undefined) | > 100 µM
O=[N+]([O-])c1sc2ccc(Cl)cc2c1Nc1ccc(Cl)cc1 | > 100 µM
Cc1nnc(-c2ccc(C)c(-c3ccc(C(=O)NCc4ccc(Cl)cc4)cc3)c2)o1 | > 25 µM
CC(=O)Nc1ccc2cc3[nH]c4cc(NC(C)=O)ccc4c3nc2c1 | > 100 µM
CCOC(=O)c1c2cccccc2n2c(=O)cc(C)nc12 | > 100 µM
Cc1ccc(NC(=O)CC/C(CC(=O)C(C)(C)C)=N\Nc2ccc([N+](=O)[O-])cc2[N+](=O)[O-])cc1C | > 100 µM

Provenance of the data: PubChem BioAssay (NCI)
